Molecular target: T1, Siglec-9 Fc protein (human)
T1 construct: Produced in CHO cells; also called human Siglec-9 Fc
T1 sequence (chain, as listed by the source limits assumed): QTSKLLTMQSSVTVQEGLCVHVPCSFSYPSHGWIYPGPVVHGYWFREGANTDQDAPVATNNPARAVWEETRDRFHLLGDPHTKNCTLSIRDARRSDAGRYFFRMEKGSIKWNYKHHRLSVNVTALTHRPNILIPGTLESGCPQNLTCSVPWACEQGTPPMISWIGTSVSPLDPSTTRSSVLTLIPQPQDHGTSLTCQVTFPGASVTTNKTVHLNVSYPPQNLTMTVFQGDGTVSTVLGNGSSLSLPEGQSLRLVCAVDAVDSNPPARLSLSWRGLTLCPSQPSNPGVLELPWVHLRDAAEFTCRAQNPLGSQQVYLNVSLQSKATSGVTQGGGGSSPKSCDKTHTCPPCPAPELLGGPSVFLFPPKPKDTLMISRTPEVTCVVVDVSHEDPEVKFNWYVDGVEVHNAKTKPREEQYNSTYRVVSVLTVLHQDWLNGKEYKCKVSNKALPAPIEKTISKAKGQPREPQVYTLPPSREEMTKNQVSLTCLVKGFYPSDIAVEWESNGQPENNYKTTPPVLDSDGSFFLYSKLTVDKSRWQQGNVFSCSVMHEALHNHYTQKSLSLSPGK
Assay: SPR (Biacore T200), Fab over immobilized Siglec-9 Fc, 1:1 model
// reported Kd per item

binder	unit.symbol	Kd
Fab.A (Fab of mAbA) (Fab, V domains shown) VH: QVQLQQPGAELVKPGSPVKLSCKASYFTFTSYWMHWVRQRPGQGLEWIGEINPSNGHTNYNEKFESKATLTVDRSSSTAYMQLSSLTSEDSAVFYCANGVESYDFDDALDYWGQGTSVTVSS VL: DIQMTQTTSSLSASLGDRVTISCRASQDINNYLNWYQQKPDGTIKLLIYYTSRLHSGVPSRFSGSGSGTDYSLTINNLEQEDIATYFCQQGNTLPFTFGGGTKLEIK	nM	0.04
Fab.D (Fab of mAbD) (Fab, V domains shown) VH: QIQLVQSGPELKKPGETVKISCKASGYTFTDYSMHWVKQAPGKGLKWMGWIITETGEPTYADDFRGRFAFSLETSANTAYLQINNLKNEDTATYFCARDFDGYWGQGTTLTVSS VL: DILMTQSPASLSASVGETVTITCRASENIYSYLAWYQQKRGKSPQFLVYNAKTLTEGVPSRFRGSGSGTQFSLKINSLQPEDFGTYYCQHHYGFPWTFGGGTKLEIK	nM	4.12
